Can you tell me %Inh for the items I'm about to list?
Tested on: JAK1(JH2domain-pseudokinase)
Conditions: concentration: 1 μM, replicates: in singlicate; n = 1;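 note: KINOMEscan kinase panel screen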
Answers are plain numbers, in %.

Example molecules with recorded %Inh:
MOLECULE	UNIT	%Inh
O=C(Nc1n[nH]c2nc(-c3cccs3)c(Br)cc12)C1CC1 [SB-735297]	%	21
O=c1cc(N2CCOCC2)nc2n(Cc3ccccc3F)ccn12 [GSK2297428]	%	0
COc1ccc(Nc2nccc(N3CCC(NC(=O)C(C)c4ccc(Cl)cc4)C3)n2)cc1 (stereo not drawn) [GSK1379735]	%	0
Cc1ccc(NC(=O)Nc2ccccc2)cc1-c1ccc(C(=O)Nc2ccncc2)cc1 [GSK1398471]	%	0
O=C(Nc1n[nH]c2cc(-c3ccsc3)ccc12)C1CC1 [SB-732932]	%	4

Now, please, on to the next molecule.
Return reported %Inh; argument: Cc1cnc(N)c(/C=C/c2cncc(C(=O)NCCc3ccc(Cl)cc3Cl)c2)c1.Cl [GSK190937]
0

----------
Tested on: PRKX
Conditions: concentration: 1 μM, replicates: in singlicate; n = 1
Rule: %Inh under 20% gives 0, otherwise 1.

COMPOUND	ANSWER_LABEL
CCc1ccc(-c2ccc3c(c2)-c2n[nH]cc2S(=O)(=O)N3C)cc1	0
CC(C)c1cc(-c2ccc3c(N)n[nH]c3c2)nc(N)n1	1

Is reported %Inh greater than or equal to 20% here: CCn1c(-c2c(N)noc2C)nc2cnccc21
0

Request: Cc1ccc(NC(=O)Nc2ccccc2F)cc1-c1ccc(C(=O)Nc2ccncc2)cc1
1

Same read-out for Cn1cnc2c(N)ncnc21 ?
0

Queued: CCCCc1nn2ncccc2c1-c1ccnc(NC2CC2)n1
0

Next record, please: CNc1nc(-c2ccc3c(N)n[nH]c3c2)cc(N2C[C@@H](C(=O)NC3CCCCC3)OC[C@H]2C)n1
1

Request: CC(=O)c1cccc(NC(=O)NC2CCN(c3ccnc(Nc4ccc(F)cc4)n3)C2)c1 (stereo not drawn)
1

Next compound: Cc1c(Cn2c(C)c(C)n3c(=O)cc(N4CCOCC4)nc23)cccc1C(F)(F)F
0

----------
Would you mind telling me the reported %Inh of each entry?
System: TRKA
Construct: gene NTRK1
Conditions: concentration: 1 μM, replicates: in singlicate; n = 1
Give bare numbers, in %.

Example cases with answers are listed next.
COMPOUND	%Inh / %
CCn1c(-c2c(N)noc2C)nc2cnccc21	0
CNc1cc(-c2ccc3c(N)n[nH]c3c2)nc(N)n1	11
CS(=O)(=O)Cc1ccc(Nc2nccc(-c3c(-c4cccc(NC(=O)C5CCCCC5)c4)nn4ncccc34)n2)cc1	39

State the recorded %Inh for every item in the following list.
1. Fc1ccc(-c2nc[nH]c2-c2ccncc2)cc1
2. NS(=O)(=O)c1cccc(N/C=C2\C(=O)Nc3ccc(S(=O)(=O)Cc4c(Cl)cccc4Cl)cc32)c1
3. COc1ccc2cc(-c3nc(-c4ccccc4C(C)C)[nH]c3-c3ccncc3)ccc2c1
4. O=c1cc(N2CCOCC2)nc2n(Cc3cccc(Cl)c3Cl)c3ccccc3n12
5. CCn1c(-c2ccccc2)nc2cnccc21

1. 0
2. 49
3. 0
4. 18
5. 0

----------
Give %Inh for every item shown.
Tested on: RSK3(Kin.Dom.1-N-terminal)
Construct: gene RPS6KA2
Settings: concentration: 1 μM, replicates: in singlicate; n = 1
Give bare numbers, in %.

These solved cases illustrate the format of a correct answer.
COMPOUND	UNIT	%Inh
CS(=O)(=O)CCNCc1nc(-c2ccc3ncnc(Nc4ccc5c(cnn5Cc5ccccc5)c4)c3c2)cs1.Cl.Cl	%	0
Cl.Cl.Cl.N#Cc1ccc(CCNc2nccc(-c3cccc(CN4CCNCC4)c3)n2)cc1	%	0
COC(=O)C(NC(=O)NC1CCN(c2ccnc(Nc3ccc(F)cc3)n2)C1)c1ccccc1 (stereo not shown)	%	0
Cn1cnc2c(N)ncnc21	%	0

I need %Inh for every entry listed below, if you could help.
1. O=C(Nc1n[nH]c2cc(-c3ccsc3)ccc12)C1CC1
2. NS(=O)(=O)c1cccc(N/C=C2\C(=O)Nc3ccc(S(=O)(=O)Cc4c(Cl)cccc4Cl)cc32)c1
3. COc1nccc(-c2c(-c3ccc(F)cc3)ncn2CCCN2CCOCC2)n1
4. Cn1cncc1-c1cc2c(Nc3ccc(OCc4ccccc4)cc3)ncnc2cn1
5. Cc1cnc(N)c(/C=C/c2cncc(C(=O)NCCc3ccc(Cl)cc3Cl)c2)c1.Cl
6. CCCCc1nn2ncccc2c1-c1ccnc(NC2CC2)n1

1: 71; 2: 10; 3: 0; 4: 3; 5: 0; 6: 0
